- System: GCN2 kinase (Homo sapiens)
- Sequence (Q9P2K8 whole entry): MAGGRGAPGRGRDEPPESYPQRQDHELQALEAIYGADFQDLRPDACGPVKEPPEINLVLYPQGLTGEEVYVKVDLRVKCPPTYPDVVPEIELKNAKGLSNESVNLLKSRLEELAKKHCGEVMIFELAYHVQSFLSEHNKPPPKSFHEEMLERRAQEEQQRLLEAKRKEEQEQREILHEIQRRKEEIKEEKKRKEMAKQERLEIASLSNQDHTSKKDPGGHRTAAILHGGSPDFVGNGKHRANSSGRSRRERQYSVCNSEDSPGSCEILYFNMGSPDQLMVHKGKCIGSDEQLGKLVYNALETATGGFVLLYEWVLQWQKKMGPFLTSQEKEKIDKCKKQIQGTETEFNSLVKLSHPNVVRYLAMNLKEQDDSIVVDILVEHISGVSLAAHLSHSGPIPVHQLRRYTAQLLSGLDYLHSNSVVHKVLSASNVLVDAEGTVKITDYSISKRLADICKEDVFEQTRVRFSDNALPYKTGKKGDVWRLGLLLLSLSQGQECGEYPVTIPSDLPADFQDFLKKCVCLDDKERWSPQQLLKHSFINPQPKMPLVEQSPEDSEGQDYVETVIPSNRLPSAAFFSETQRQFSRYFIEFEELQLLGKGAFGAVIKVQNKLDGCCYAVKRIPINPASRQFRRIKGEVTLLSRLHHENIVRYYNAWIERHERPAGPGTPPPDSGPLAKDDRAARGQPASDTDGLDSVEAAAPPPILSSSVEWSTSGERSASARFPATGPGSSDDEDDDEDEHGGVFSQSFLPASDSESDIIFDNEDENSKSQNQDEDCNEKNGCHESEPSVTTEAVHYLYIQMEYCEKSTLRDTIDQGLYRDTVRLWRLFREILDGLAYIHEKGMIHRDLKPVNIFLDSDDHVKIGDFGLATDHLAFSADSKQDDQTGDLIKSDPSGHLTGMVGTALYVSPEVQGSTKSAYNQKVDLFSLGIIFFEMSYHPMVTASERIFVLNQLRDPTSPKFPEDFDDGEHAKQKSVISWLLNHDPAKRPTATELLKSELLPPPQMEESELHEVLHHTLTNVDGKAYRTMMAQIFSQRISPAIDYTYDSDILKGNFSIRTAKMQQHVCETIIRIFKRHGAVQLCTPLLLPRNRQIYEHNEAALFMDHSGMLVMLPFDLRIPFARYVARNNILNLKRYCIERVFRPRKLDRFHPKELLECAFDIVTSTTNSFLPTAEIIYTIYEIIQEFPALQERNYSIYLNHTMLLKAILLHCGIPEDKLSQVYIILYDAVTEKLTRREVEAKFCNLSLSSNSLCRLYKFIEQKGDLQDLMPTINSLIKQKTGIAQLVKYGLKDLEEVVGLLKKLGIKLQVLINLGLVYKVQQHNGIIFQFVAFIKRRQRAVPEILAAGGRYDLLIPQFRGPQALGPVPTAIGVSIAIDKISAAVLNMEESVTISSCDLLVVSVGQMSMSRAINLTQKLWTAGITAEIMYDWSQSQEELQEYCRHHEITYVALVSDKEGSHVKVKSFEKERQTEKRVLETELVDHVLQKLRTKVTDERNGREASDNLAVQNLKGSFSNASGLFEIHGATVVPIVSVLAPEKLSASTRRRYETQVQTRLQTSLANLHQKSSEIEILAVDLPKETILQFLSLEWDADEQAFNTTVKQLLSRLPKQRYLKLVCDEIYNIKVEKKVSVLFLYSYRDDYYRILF
- Method Summary: GCN2 enzyme inhibition assay (Transcreener ADP2 fluorescence polarization)
- Type: biochemical
- Condition Description: compounds of Formula II; 280 μM ATP, 4 nM GCN2 kinase
pKi: −log10 of the molar value.
Property Measured: pKi

As a guide, the following entries are already answered.
O=C1CCCC2CN(c3cc(-c4cnc5ccc(Cl)nn45)ccn3)CCN12 (centres unmarked); 6.00 to 8.00
CC(=O)N1CCCN(c2cc(-c3cnc4ccc(C(F)F)nn34)ccn2)CC1; 6.00 to 8.00
OCCC1CN(c2cc(-c3cnc4ccc(C(F)F)nn34)ncn2)CCO1 (centres unmarked); 6.00 to 8.00
CC1(C)CN(c2cc(-c3cnc4ccc(C(F)F)nn34)ncn2)CC1CNS(C)(=O)=O (centres unmarked); > 8.00

Note: attention shifts to another entry.
Q: # pKi lookup, item CC1CC(N=S(C)(C)=O)C(C)N(c2cc(-c3cnc4ccc(C(F)F)nn34)ncn2)C1 (single isomer, unassigned)
Ans: 6.00 to 8.00

----------
Answer each item with its documented pKi.
- System: UniProt:Q9P2K8
- Method Summary: GCN2 enzyme inhibition assay (Transcreener ADP2 fluorescence polarization)
- Assay type: biochemical
- Condition Description: compounds of Formula II; 280 μM ATP, 4 nM GCN2 kinase
pKi: −log10 of the molar value.

Past entries and their recorded results:
CS(=O)(=O)NCC1CCCN(c2cc(-c3cnc4ccc(C(F)F)nn34)cc(N3CC4(CNC4)C3)n2)C1 (centres unmarked); > 8.00
CC1C(CO)CCCN1c1cc(-c2cnc3ccc(C(F)F)nn23)ncn1 (centres unmarked) [II-555]; 6.00 to 8.00
NC(=O)CC1CCCN(c2cc(-c3cnc4ccc(C(F)F)nn34)ccn2)C1 (centres unmarked); 6.00 to 8.00
O=S(=O)(NCC1CCCN(c2cc(-c3cnc4ccc(C(F)F)nn34)ncn2)C1)C1CNC1 (centres unmarked); 6.00 to 8.00
CCS(=O)(CC)=NC1CC(C)CN(c2cc(-c3cnc4ccc(C(F)F)nn34)ncn2)C1 (centres unmarked); 6.00 to 8.00
FC(F)c1ccc2ncc(-c3cc(N4CCOCC4)ncn3)n2n1; 6.00 to 8.00
COCC(=O)NCCC1CCCN(c2cc(-c3cnc4ccc(C(F)F)nn34)ncn2)C1 (centres unmarked); 6.00 to 8.00
NS(=O)(=O)N1CC2(CN(c3cc(-c4cnc5ccc(C(F)F)nn45)ncn3)CCO2)C1; 6.00 to 8.00

Give one value of pKi per listed molecule.
1. CC1C(CNS(C)(=O)=O)C(C)(O)C(C)CN1c1cc(-c2cnc3ccc(C(F)F)nn23)ncn1 (centres unmarked) [II-618]
2. CC1CCC(NS(C)(=O)=O)CN1c1cc(-c2cnc3ccc(C(F)F)nn23)ncn1 (centres unmarked) [II-551]
3. CS(=O)(=O)N1CC2(CCCN(c3cc(-c4cnc5ccc(C(F)F)nn45)ncn3)C2)C1

Ans:
> 8.00
6.00 to 8.00
> 8.00

----------
- System: intracellular GCN2 (phosphorylation of the GCN2 substrate eIF2α) (Homo sapiens)
- Method Summary: GCN2 cellular inhibition assay (AlphaScreen SureFire P-eIF2α Ser51, borrelidin-treated U2OS cells)
- Assay type: cell-based
- Condition Description: compounds of Formula III; U2OS cells, 10 μM borrelidin, 1 h; read-out: GCN2 Biomarker (IC50)
pIC50: −log10 of the molar value.
Property Measured: pIC50

CC1CN(c2cc(-c3cnn4ccc(C(F)F)nc34)ccn2)CC(CNS(C)(=O)=O)C1(F)F (stereo not shown) [III-7]; 5.30 to 6.30

# per-item lookup of pIC50; items listed below
1. CS(=O)(=O)NC[C@@H]1CN(c2cc(-c3cnn4ccc(C(F)F)nc34)ncn2)CCO1 [III-4]
2. CS(=O)(=O)NC[C@@H]1CN(c2cc(-c3cnn4cc(F)c(C(F)F)nc34)ncn2)CCO1 [III-10]

Ans:
["> 6.30", "> 6.30"]

Q: Please give the measured pIC50 for this compound: CC(=O)N1CCN(c2cc(-c3cnn4ccc(C(F)F)nc34)ccn2)CC1
Ans: 5.30 to 6.30

----------
- System: UniProtKB Q9P2K8
- Method Summary: GCN2 enzyme inhibition assay (Transcreener ADP2 fluorescence polarization)
- Assay type: biochemical
- Condition Description: compounds of Formula II; 280 μM ATP, 4 nM GCN2 kinase
pKi: −log10 of the molar value.
Property Measured: pKi

For every item below, please supply its pKi.
1. OCC1CN(c2cc(-c3cnc4ccc(C(F)F)nn34)ncn2)CC2(COC2)O1 (centres unmarked)
2. NC(=O)C1COCCN(c2cc(-c3cnc4ccc(C(F)F)nn34)ncn2)C1 (centres unmarked)
3. CN(CC1CCCN(c2cc(-c3cnc4ccc(C(F)F)nn34)ccn2)C1)S(C)(=O)=O (centres unmarked)
4. Cc1nnc([C@@H]2CN(c3cc(-c4cnc5ccc(C(F)(F)F)nn45)ccn3)C[C@H](C)O2)o1
5. C[C@H]1[C@@H](CNS(C)(=O)=O)CC(F)(F)CN1c1cc(-c2cnc3ccc(C(F)F)nn23)ncn1 (single isomer, unassigned)

Ans:
6.00 to 8.00
6.00 to 8.00
6.00 to 8.00
6.00 to 8.00
> 8.00

Items follow; give pKi for each.
1. CS(=O)(=O)NCC1CN(c2cc(-c3cnc4ccc(C(F)F)nn34)ncn2)CC2(CC2)C1(F)F (centres unmarked)
2. CS(=O)(=O)NCC1CN(c2cc(-c3cnc4ccc(C(F)F)nn34)ncn2)C[C@@H]2CCCN12 (some centres unmarked)
3. CS(=O)(=O)NCC1CCCN(c2cc(-c3cnc4ccc(C(F)F)nn34)cc(N3CC4(COC4)C3)n2)C1 (centres unmarked)
4. CNc1cc(N2CCCC(CNS(C)(=O)=O)C2)cc(-c2cnc3ccc(C(F)F)nn23)n1 (centres unmarked)
5. CC1C(NS(C)(=O)=O)CCCN1c1cc(-c2cnc3ccc(C(F)F)nn23)ncn1 (single isomer, unassigned) [II-374]
6. CCC1C(CNS(C)(=O)=O)CCCN1c1cc(-c2cnc3ccc(C(F)F)nn23)ncn1 (single isomer, unassigned) [II-416]
7. C[C@H]1CO[C@@H](CNS(C)(=O)=O)CN1c1cc(-c2cnc3ccc(C(F)F)nn23)ncn1
8. CCS(=O)(=O)N[C@H]1CCCN(c2cc(-c3cnc4ccc(C(F)F)nn34)ncn2)C1

Ans:
["> 8.00", "> 8.00", "> 8.00", "> 8.00", "6.00 to 8.00", "> 8.00", "6.00 to 8.00", "6.00 to 8.00"]

Quick batch: pKi for everything below.
1. CS(=O)(=O)NCC1CCCN(c2cc(-c3cnc4ccc(C(F)F)nn34)cc(Cl)n2)C1 (centres unmarked)
2. CS(=O)(=O)NCC1CN(c2cc(-c3cnc4ccc(C(F)F)nn34)ncn2)CC(C2CC2)O1 (centres unmarked) [II-440]
3. O=C1OCC2CN(c3cc(-c4cnc5ccc(C(F)F)nn45)ccn3)CCN12 (centres unmarked)
4. O=C1NCC2CN(c3cc(-c4cnc5ccc(C(F)F)nn45)ccn3)CCN12 (centres unmarked) [II-173]

Ans:
1: > 8.00; 2: 6.00 to 8.00; 3: 6.00 to 8.00; 4: 6.00 to 8.00

Fill in pKi for each of the 8 molecules listed.
1. CC1(C)CN(c2cc(-c3cnc4ccc(C(F)F)nn34)ccn2)C[C@H](CNS(C)(=O)=O)O1
2. CC1C(CNS(C)(=O)=O)N(CC2CC2)CCN1c1cc(-c2cnc3ccc(C(F)F)nn23)ncn1 (centres unmarked)
3. CS(=O)(=O)N1CCCC(c2cc(-c3cnc4ccc(C(F)F)nn34)ncn2)CC1 (centres unmarked) [II-14]
4. CS(C)(=O)=Nc1cccc(-c2cc(-c3cnc4ccc(C(F)F)nn34)ncn2)c1
5. CC1C(N=S(C)(C)=O)CCCN1c1cc(-c2cnc3ccc(C(F)F)nn23)ncn1 (centres unmarked) [II-579]
6. CC1CC(F)(F)C(CNS(C)(=O)=O)CN1c1cc(-c2cnc3ccc(C(F)F)nn23)ncn1 (single isomer, unassigned) [II-304]
7. COc1cc(-c2cnc3ccc(C(F)F)nn23)cc(N2CCC[C@H](CNS(C)(=O)=O)C2)n1
8. CC1CC(CO)C(C)N(c2cc(-c3cnc4ccc(C(F)F)nn34)ncn2)C1 (centres unmarked) [II-577]

Ans:
> 8.00
> 8.00
6.00 to 8.00
6.00 to 8.00
6.00 to 8.00
> 8.00
> 8.00
> 8.00

----------
- System: intracellular GCN2 (phosphorylation of the GCN2 substrate eIF2α) (Homo sapiens)
- Method Summary: GCN2 cellular inhibition assay (AlphaScreen SureFire P-eIF2α Ser51, borrelidin-treated U2OS cells)
- Format: cell-based
- Condition Description: compounds of Formula IV; biomarker assay, phosphorylated eIF2α Ser51 in borrelidin-treated U2OS cells
pIC50: −log10 of the molar value.
Could you please report measured pIC50 for the items listed next?

// below: answered compounds
CC1CN(c2ccnc(-c3cnc4cnc(Br)cn34)n2)C(C)C(c2c[nH]cn2)N1 (stereo not shown) [IV-373]; 5.30 to 6.30
OC1CCN(c2ccnc(-c3cnc4cnc(C(F)(F)F)cn34)n2)CC1c1cn[nH]c1 (single isomer, unassigned) [IV-622]; 5.30 to 6.30
FC(F)(F)c1cn2c(-c3nccc(N4CCC(c5c[nH]nc5C(F)(F)F)C4)n3)cnc2cn1 (stereo not shown) [IV-572]; 5.30 to 6.30

Q: // returns reported pIC50 for input CS(=O)(=O)NC[C@@H]1CN(c2ccnc(-c3cnc4cnc(C(F)F)cn34)n2)CCO1
Ans: < 5.30
